Values compiled from patent US20230357447A1.

Examples of substances with documented Phage binding ELISA Backgroud signal follow.
- System: anti-CD28 scFv
- PROCEDURE DETAILS: Phage binding ELISA (panning) of clonal phage on anti-CD28 scFv, with or without CD28 soluble protein
- COND: clonal phage supernatant; background (no anti-CD28 scFv signal)
// return a plain number; no unit text

Phage-425 (MDLCPTAMWNRCFY) ... 0.063
Phage-414 (LYWCPRDMWAYCYS) ... 0.068

# input Using the record for Phage-448 (MAWCPWASFDECLA) , report its Phage binding ELISA Backgroud signal.
# output 0.104

* * *

Each item that follows carries a reported Phage binding ELISA Backgroud signal.
- Tested on: anti-CD28 scFv
- PROCEDURE DETAILS: Phage binding ELISA (panning) of clonal phage on anti-CD28 scFv, with or without CD28 soluble protein
- COND: clonal phage supernatant; background signal
Field format: numeric only.

Sample answers from the record:
Phage-226 (MDWCPRDRWIDCFN) ... 0.218
Phage-270 (MDWCPRDFWAFCFF) ... 0.118
Phage-53 (MDWCPMHLWNKCFN) ... 0.071
Phage-257 (MDWCPRFLWHECFN) ... 0.079
Phage-68 (MDWCPMYMWYECFA) ... 0.080
Phage-376 (MDWCPRHLWTYCFH) ... 0.109
Phage-159 (MAWCPMNLWDQCFF) ... 0.070
Phage-49 (MSWCPIHLWNECFN) ... 0.083
Phage-260 (MDWCPVFMWNECFN) ... 0.079
Phage-47 (MAWCPVYLWHECFN) ... 0.094

# input Given the substance Phage-341 (MDWCPRHLWDECFN) , what is its reported Phage binding ELISA Backgroud signal?
# output 0.084

# input Also need Phage-335 (MDWCPRFLWDYCFA) , thanks.
# output 0.146

# input Likewise for Phage-212 (MDWCPRAMWDKCFF) ?
# output 0.073

# input Same for Phage-258 (MDWCPRSLWHVCFN)
# output 0.098

# input Okay, and Phage-302 (MDWCPRYLWHVCFD) ?
# output 0.068

# input Also, Phage-264 (MDWCPRHLWHVCFN) please.
# output 0.070

# input What would you report for Phage-259 (MDWCPRNLWHACFN) ?
# output 0.071

# input How about Phage-75 (MDWCPRSHWHVCYN) ?
# output 0.072

# input Then Phage-190 (MDWCPRDMWAECFF) ?
# output 0.099

# input Then this substance: Phage-280 (MDWCPRYLWDYCFA)
# output 0.073

# input Similarly, Phage-81 (MDWCPRFLWSVCFN) ?
# output 0.515
